- Tested on: EKVX NSCLC
- Test summary: NCI-60 one-dose screen, 48 h
- Assay context: 10 µM unless noted
This is part of a sample that, as a whole, favours compounds with a hit. Of some 83,000 tested, about 20% had one in any assay. Active and inactive are the calls of the source. Rule for the calls: active = growth percent below 10; inactive = the rest.
# output must be one of True = active, False = inactive

Called result for CNCc1cccc2c1OCCOCCOCCN(CCN1CCOCC1)S(=O)(=O)c1ccc(cc1)-c1cnc(N)c(n1)C(=O)N2
False

Called result for COc1cc(NCC(=O)Nc2cc(Nc3cccc(C(F)(F)F)c3)ncn2)c(Cl)c(OC)c1Cl
False

Called result for Cc1nnc(/N=C2\NC(=O)/C(=C/c3ccc(N(C)C)cc3)S2)s1
False

Called result for C=CCn1c(SCC(=O)Nc2ccc(C(=O)/C=C/c3cc(OC)c(OC)c(OC)c3)cc2)nnc1-c1ccc(Cl)cc1
False

Called result for O=c1[nH]nc(-c2ccc(Br)cc2)c2sc(NC(=S)Nc3ccc(Cl)cc3)nc12
False

Called result for C/C(=N/Nc1nc2ccccc2n1C)c1ccccn1
True

Called result for CCOC(=O)c1ccc(Nc2ncnc3ccc(NC(=O)c4ccccc4)cc23)cc1
False

Called result for C=C1C(=O)O[C@H]2[C@H]1CC/C(COC(=O)CCC(=O)OC/C1=C/CC[C@@]3(C)O[C@H]3[C@H]3OC(=O)C(=C)[C@@H]3CC1)=C\CC[C@@]1(C)O[C@@H]21
False

Called result for c1ccc(-c2n(Cc3ccc4ccccc4n3)cc[n+]2Cc2ccc3ccccc3n2)cc1
False

Called result for CCC[S@@](=O)c1ccc2nc(NC(=O)OC)[nH]c2c1
False

Called result for COc1ccc(Sc2[nH]c(C(C)=O)c3ccccc23)cc1
False

Called result for COc1cc(NC(=O)Nc2cnc(Nc3ccc(N4CCOCC4)cc3)nc2Oc2ccc(C(F)(F)F)cc2)cc(OC)c1
False

Called result for C#C[C@@]1(O)[C@@H](CO)O[C@@H](n2cc(F)c3c(N)ncnc32)[C@@H]1O
True

Called result for COc1ccc(NC(=O)Nc2ccc(Nc3nc(C)cc(Nc4ccc(C)cc4)n3)cc2)cc1
True

Called result for CC(C)(C)c1nc2c(s1)c1nc(N)ncc1c1ccc(NS(=O)(=O)c3c(F)cccc3F)c(F)c12
False

Called result for NS(=O)(=O)c1ccc(-n2nc(-c3ccccc3)ccc2=O)cc1
False

====

- Tested on: UACC-257 melanoma
- Test summary: NCI-60 one-dose screen, 48 h
- Assay context: 10 µM unless noted
This is part of a sample that, as a whole, favours compounds with a hit. Of some 83,000 tested, about 20% had one in any assay. The source made the active and inactive calls. How the source made its calls: active means growth percent below 10; inactive means the rest.
# output must be one of label 1 = active, label 0 = inactive

Called result for CN1CC=C(c2cc(NC(=O)Nc3ccc(Oc4ccnc(NC(=O)C5CC5)c4)c(F)c3)cc(C(F)(F)F)c2)CC1
label 1

Called result for c1cc(CNC23CC4CC(CC(C4)C2)C3)cc(C[N+](Cc2cccc(CNC34CC5CC(CC(C5)C3)C4)c2)(Cc2cccc(CNC34CC5CC(CC(C5)C3)C4)c2)Cc2cccc(CNC34CC5CC(CC(C5)C3)C4)c2)c1 (centres undefined)
label 0

Called result for Cc1[nH]c2ncnc(Oc3ccc(NC(=O)Nc4ccc(Cl)c(C(F)(F)F)c4)cc3)c2c1C
label 0

Called result for O=[N+]([O-])c1ccc(N=Nc2c(O)c(N=Nc3cc([N+](=O)[O-])cc([N+](=O)[O-])c3O)cc(N=Nc3cc(S(=O)(=O)O)cc4cc(S(=O)(=O)O)cc(O)c34)c2O)cc1
label 0

Called result for COc1cccc(NC(=O)Nc2ccc(Oc3ncnc4[nH]c(C)c(C)c34)cc2)c1
label 0

Called result for CCCCCCC/C=C/[C@H]1O[C@]23C(=O)C[C@@]4(C[C@@H](OC5OC(CO)C(O)C(O)C5O)C[C@@H]4[C@H]2C=C1C)OC3=O (some centres undefined)
label 0

Called result for CSc1nc(-c2ccc(F)cc2)c(C#N)c(N2CCOCC2)n1
label 0

Called result for NC(=O)C(O)(c1ccccc1)c1ccccc1
label 0

Called result for CC1(c2ccccc2Cl)NC(=O)NC1=O (centres undefined)
label 0

====

- Tested on: HS 578T breast
- Test summary: NCI-60 one-dose screen, 48 h
- Assay context: 10 µM unless noted
This is part of a sample that, as a whole, favours compounds with a hit. Of some 83,000 tested, about 20% had one in any assay. Calls of active or inactive are those of the source. How the source made its calls: active means growth percent below 10; inactive means the rest.
# output must be one of active, inactive

Called result for C=C1C(=O)O[C@H]2[C@H]1CC/C(COC(=O)/C=C/c1cccnc1)=C\CC[C@@]1(C)O[C@@H]21
inactive

Called result for CC1CCN(CCCCCOc2ccc3oc4ccccc4c(=O)c3c2)CC1
inactive

Called result for CO[C@@]12C=C[C@@]34CCC(=O)N3c3ccccc3[C@@H](O1)C4C2
inactive

Called result for CN1C(=O)c2cc(Cl)nc3c(NC(=O)c4cccc(Cl)c4)c(Cl)c(NC(=O)c4cccc(Cl)c4)c1c23
active

Called result for COC(=O)c1nc(-c2ccccc2)oc1S(=O)(=O)n1nc(C)cc1N
inactive

Called result for O=C(O)C(C(=O)O)c1cccc2ccccc12
inactive

Called result for NS(=O)(=O)c1ccc(C2C3=C(CCCC3=O)OC3=C2C(=O)c2ccccc2C3=O)cc1 (stereo unspecified)
active

Called result for CCOC(=O)C(=Cc1c(-c2ccccc2)[nH]c2ccccc12)C(=O)OCC
inactive

Called result for Cc1cccc(C)c1NCc1nnc(-c2ccc(O)cc2)o1
active

Called result for CC(=O)c1cc2c(N)c(C(=O)Nc3ccccn3)sc2nc1C
inactive

Called result for COc1cc(-c2csc(NC(=O)Nc3ccc(Cl)cc3)n2)cc(OC)c1OC
inactive

Called result for C=C(C)[C@@H]1CC[C@]2(C(=O)O)CC[C@]3(C)[C@H](CC[C@@H]4[C@@]5(C)C[C@@H](CC#Cc6ccccc6C)C(=O)C(C)(C)[C@@H]5CC[C@]43C)[C@@H]12
inactive

Called result for O=C1Nc2ccc(Br)cc2/C1=N\N=C/c1cn(Cc2ccccc2)c2ccccc12
inactive

Called result for O=c1[nH]c2ccccc2cc1-c1nc2ccc(Cl)cc2[nH]1
inactive

Called result for N#Cc1ccc(N2Cc3cc(Cl)ccc3OC3=C2C(=O)N(Cc2ccccc2)C3=O)cc1
inactive

Called result for CC(=O)Nc1ccc2c(c1)Cc1cc(F)ccc1-2
inactive

Called result for COc1cc(C)ccc1Oc1nc(Nc2ccc(N3CCOCC3)cc2)ncc1N=Cc1cc(C(F)(F)F)cc(C(F)(F)F)c1
inactive

Called result for CN(C)c1ccc(-c2ccc3[nH]c(=O)nc(-c4ccc(F)cc4)c3c2)cn1
inactive

Called result for CCCCn1c(=O)c(/C=C/C(=O)/C=C/c2cc3ccccc3n(CCCC)c2=O)cc2ccccc21
inactive

Called result for COc1cc(C(C)c2ccc3c(ccn3C)c2)cc(OC)c1OC (stereo unspecified)
inactive

Called result for CCn1cc(C(=O)O)c(=O)c2cc(F)c(N3CCN(CC(=O)Nc4ccc(/C(C)=N/OC)cc4)CC3)cc21
inactive

Called result for COC(=O)c1ccc2c(c1)NC(=O)[C@@H]1CCCN21
inactive

Called result for Cc1ccc(-c2nc(C#N)c(S(=O)(=O)N(C)CCO)o2)cc1
inactive

Called result for O=C(Nc1ccccc1)NS(=O)(=O)c1c[nH]c(=S)[nH]c1=O
inactive

Called result for COc1ccc(/C=C/C(=O)C(CC2CCC2)C(=O)/C=C/c2ccc(OC)c(OC)c2)cc1OC
inactive

Called result for COc1cc2nc3c(=O)n(-c4ccc(C#N)cc4)cnn3c(=O)c2cc1OC
inactive

Called result for CCN1CCN(c2ccc(NC(=O)Nc3nc4ccc(-c5ccccc5OC)cc4s3)cc2)CC1
active

Called result for Nc1c(C(=O)Nc2cccc3ccccc23)sc2nc3c(cc12)COCC3
inactive

Called result for COc1c(O)cc2oc3cc(O[C@@H]4OC(C)[C@@H](O)[C@H](O)C4O)c(CC=C(C)C)c(O)c3c(=O)c2c1CC=C(C)C (stereo partly specified)
inactive

Called result for C=C(C)[C@@H]1CC[C@]2(C(=O)OCCOCCOCC[P+](c3ccccc3)(c3ccccc3)c3ccccc3)CC[C@]3(C)[C@H](CC[C@@H]4[C@@]5(C)CC[C@H](OC(C)=O)C(C)(C)[C@@H]5CC[C@]43C)[C@@H]12
active

Called result for O=C1c2ccccc2C(=O)c2c1oc1c2c(=O)[nH]c2ccc(Cl)cc21
active

====

- System: OVCAR-5 ovarian
- Test summary: NCI-60 one-dose screen, 48 h (100 = growth as untreated, 0 = no growth, -100 = all killed)
- Assay context: 10 µM unless noted
This is part of a sample that, as a whole, favours compounds with a hit. Of some 83,000 tested, about 20% had one in any assay.
Quantity name: growth (%)
Respond numerically; units are % and should not be typed.

Look up and report measured growth for this entry: O=Cc1[nH]c(Sc2ccccc2)c2ccccc12
87.4

Look up and report measured growth for this entry: COc1cc(/C=C/C(=O)c2cccs2)ccc1OCc1ccc(Cl)nc1
88.9

Look up and report measured growth for this entry: CN(C)CCCn1c2c(c3cc(-c4cccc(S(N)(=O)=O)c4)ccc3c1=O)C(=O)c1ccccc1-2
97.7

Look up and report measured growth for this entry: COc1cc(F)c(-c2nc3c(C)cccc3n2Cc2c(F)cccc2F)c(F)c1
94.6

Look up and report measured growth for this entry: COc1cc(NC(=O)Nc2cnc(Nc3ccc(N4CCOCC4)cc3)nc2Oc2ccc(C(F)(F)F)cc2)cc(OC)c1
116

Look up and report measured growth for this entry: Cc1ccc(C(=O)O)o1
105

Look up and report measured growth for this entry: COc1cc(NCC(=O)Nc2cc(Nc3ccc(C)cc3)ncn2)c(Cl)c(OC)c1Cl
92.3

Look up and report measured growth for this entry: Cc1c(O)c(=O)ccn1-c1nc2ccccc2s1
98.7
